Reference source: BigSolDB 2.1

# RUN PARAMETERS: in acetic acid, 308.15 K
EXPERIMENTAL ENDPOINT: solubility (mole fraction)

Identify the reported solubility (mole fraction) for the following entry. CC(=O)OC(c1ccccc1)C(Cl)(Cl)Cl (stereo unspecified)
0.0605

====

# RUN PARAMETERS: in isopropanol, 308.15 K
EXPERIMENTAL ENDPOINT: solubility (mole fraction)

For the compound CC(=O)OC(c1ccccc1)C(Cl)(Cl)Cl (stereo unspecified) , give its reported solubility (mole fraction).
0.0211

====

# RUN PARAMETERS: in acetic acid, 318.15 K
EXPERIMENTAL ENDPOINT: solubility (mole fraction)
// return a plain number; no unit text

For the compound CC(=O)OC(c1ccccc1)C(Cl)(Cl)Cl (stereo unspecified) , give its measured solubility (mole fraction) value.
0.1
